Quick reference: pKi of the listed items.
Test target: DLK (Homo sapiens, UniProt Q12852)
Construct: N-terminally GST-tagged DLK (catalytic domain amino acid 1-520) (Carna Bioscience); GST (N)
Sequence (Q12852 1-520): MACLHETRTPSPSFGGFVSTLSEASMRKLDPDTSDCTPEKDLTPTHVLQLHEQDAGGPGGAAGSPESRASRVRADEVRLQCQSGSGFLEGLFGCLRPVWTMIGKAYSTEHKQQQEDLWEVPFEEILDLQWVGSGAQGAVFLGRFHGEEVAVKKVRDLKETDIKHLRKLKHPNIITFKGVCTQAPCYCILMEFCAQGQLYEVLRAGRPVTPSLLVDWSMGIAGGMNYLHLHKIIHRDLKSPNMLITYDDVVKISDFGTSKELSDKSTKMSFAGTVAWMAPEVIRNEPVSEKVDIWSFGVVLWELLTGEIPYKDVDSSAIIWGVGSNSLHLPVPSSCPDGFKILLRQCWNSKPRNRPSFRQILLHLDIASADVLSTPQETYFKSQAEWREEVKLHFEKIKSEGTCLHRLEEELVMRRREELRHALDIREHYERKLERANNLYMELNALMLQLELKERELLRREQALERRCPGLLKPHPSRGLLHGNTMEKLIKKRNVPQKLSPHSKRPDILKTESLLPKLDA
Experiment notes: DLK TR-FRET assay
Test conditions: 5 nM GST-tagged DLK (catalytic domain amino acid 1-520), 40 nM HIS-tagged MKK4 K131M substrate, 30 μM ATP, 60 minutes
pKi: −log10 of the molar value.

[
  {
    "Molecule": "C[C@@H]1CCCN1c1cc(C2CCN(CCF)CC2)cc(Nc2cc(C(F)(F)F)ccn2)n1 [Example 137]",
    "Test target": "DLK (Homo sapiens, UniProt Q12852)",
    "pKi": 9.77
  },
  {
    "Molecule": "CC(=O)N1CCC(c2cc(C)nc(Nc3cc(C#N)ccn3)c2)CC1 [Example 108]",
    "Test target": "DLK (Homo sapiens, UniProt Q12852)",
    "pKi": 7.03
  },
  {
    "Molecule": "Cc1cc(C2CCN(C(=O)OC(C)(C)C)CC2)cc(Nc2cc(C#N)ccn2)n1 [Example 116]",
    "Test target": "DLK (Homo sapiens, UniProt Q12852)",
    "pKi": 6.67
  },
  {
    "Molecule": "N#Cc1ccnc(Nc2cc(C3(C#N)CCOCC3)cc(N3CCC(F)(F)C3)n2)c1 [Example 61]",
    "Test target": "DLK (Homo sapiens, UniProt Q12852)",
    "pKi": 8.33
  }
]
